Recorded pIC50 by entry
- Test system: A2780 cells
- PROCEDURE SUMMARY: In-vitro cell proliferation assay (SRB, 72 hours)
- Format: cell-based
- EXPERIMENTAL PARAMETERS: Homo sapiens; A2780 cells, 72 hours, SRB; read-out: Cell Proliferation (IC50)
Please keep in mind that pIC50 is minus log10 of the molar concentration; only the number is needed.

N#Cc1ccc(CC(=O)N2CCC3(CC2)CC3CNC(=O)N2Cc3ccncc3C2)cc1 (centres unmarked) :: 6.87

Now for the compound whose pIC50 we want.
Field pIC50 (system: A2780 cells) for entry O=C(Cc1ncccn1)N1CCC2(CC1)CC2CNC(=O)N1Cc2ccncc2C1 (centres unmarked) = 7.57
